biological target: Hexokinase-1 (Saccharomyces cerevisiae (strain ATCC 204508 / S288c), UniProt P04806); test: Enzyme Inhibition Assay; conditions: pH 7.6; 25 °C
Sequence (P04806 whole entry): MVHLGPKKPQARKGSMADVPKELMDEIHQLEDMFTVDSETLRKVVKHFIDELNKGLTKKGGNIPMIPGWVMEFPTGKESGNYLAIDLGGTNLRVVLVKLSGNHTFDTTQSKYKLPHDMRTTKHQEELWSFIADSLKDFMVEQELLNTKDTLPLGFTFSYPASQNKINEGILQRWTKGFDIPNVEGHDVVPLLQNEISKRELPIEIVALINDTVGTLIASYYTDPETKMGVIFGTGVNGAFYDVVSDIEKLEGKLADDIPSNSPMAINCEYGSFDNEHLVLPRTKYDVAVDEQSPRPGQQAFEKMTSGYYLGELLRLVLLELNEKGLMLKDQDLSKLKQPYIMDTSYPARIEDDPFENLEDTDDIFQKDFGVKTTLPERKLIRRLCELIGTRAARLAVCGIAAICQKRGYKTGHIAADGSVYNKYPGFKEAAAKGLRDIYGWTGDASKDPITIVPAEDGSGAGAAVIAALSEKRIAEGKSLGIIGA
result.type: IC50 (mM)

P = Cc1ccccc1C(=O)N[C@@H]1[C@@H](O)[C@H](O)[C@@H](CO)O[C@@H]1O
Q = Nc1ccccc1C(=O)NC1C(O)OC(CO)C(O)C1O (centres undefined)
Data request: Between these two entries, P and Q , state which has the higher IC50. Bench note: the answer is the label of the chosen record.
Data returned: P
(P: 8 mM, Q: 1 mM)

====

molecular target: Hexokinase-1 (Saccharomyces cerevisiae (strain ATCC 204508 / S288c)); experiment: Enzyme Inhibition Assay; settings: pH 7.6; 25 °C
result.type: IC50 (mM)

P = O=C(NC1C(O)OC(CO)C(O)C1O)c1ccccc1[N+](=O)[O-] (stereo not drawn) [Glucosamine analog, 7]
Q = CC(=O)Nc1ccccc1C(=O)NC1C(O)OC(CO)C(O)C1O (stereo not drawn) [Glucosamine analog, 4]
Data request: Of P and Q , which shows the smaller IC50 value? Bench note: the answer is the label of the chosen record.
Data returned: P
(P: 3 mM, Q: 18 mM)
